Every entry's value here was drawn from ChEMBL document CHEMBL1697781.

test system: Hepatotoxicity; assay: FDA HLAED, alkaline phosphatase increase; conditions: human
Parameter measured: Alkaline Phosphatase Increase - Number of Reports

These recorded examples may help you get a feel for the data.
CC(=O)CCCCn1c(=O)c2c(ncn2C)n(C)c1=O    >= 4
N[C@@H](C(=O)N[C@@H]1C(=O)N2C(C(=O)O)=C(Cl)CS[C@H]12)c1ccccc1 [CEFACLOR ANHYDROUS]    >= 4
O=C1C(O)=C([C@H]2CC[C@H](c3ccc(Cl)cc3)CC2)C(=O)c2ccccc21    < 4
Oc1ccc2c(c1)[C@@]13CCCC[C@@]1(O)[C@@H](C2)N(CC1CCC1)CC3    < 4

Can you look up the measured Alkaline Phosphatase Increase - Number of Reports of CCOC(=O)N1CCC(=C2c3ccc(Cl)cc3CCc3cccnc32)CC1 for me?
>= 4

Can you look up the measured Alkaline Phosphatase Increase - Number of Reports of O=C(NCC(O)CO)c1c(I)c(C(=O)NCC(O)CO)c(I)c(N(CCO)C(=O)CO)c1I (stereo not drawn) for me?
< 4

Can you look up the measured Alkaline Phosphatase Increase - Number of Reports of CC1(C)NC(=O)N(c2ccc([N+](=O)[O-])c(C(F)(F)F)c2)C1=O [NILUTAMIDE] for me?
< 4

Can you look up the measured Alkaline Phosphatase Increase - Number of Reports of CC(NC(C)(C)C)C(=O)c1cccc(Cl)c1 (stereo not drawn) for me?
< 4

====

tested on: Hepatotoxicity; test: FDA HLAED, serum glutamic oxaloacetic transaminase (SGOT) increase; details: human
Numbered stars: 1 amine (or outer) side, 2 acyl side, 3 side chain; on linkers, the order of the positions; unused ones are H or OH. Bridge positions count the residues as written; N and C are the ends. Square brackets hold non-standard residues; d marks the D form. Peptide text beside a SMILES is read from it. I, II: the chains in the order shown. Actinocin(9to1) = Cc1c2oc3c(C)ccc(C(=O)[*:1])c3nc-2c(C(=O)[*:2])c(N)c1=O; NMeV = CN[C@H](C(=O)O)C(C)C; Sar = CNCC(=O)O
Parameter measured: SGOT Increase - Activity Score

These recorded examples may help you get a feel for the data.
COCC1=C(C(=O)O)N2C(=O)[C@@H](NC(=O)/C(=N\OC)c3csc(N)n3)[C@H]2SC1    Inactive
CCCCC[C@H](O)/C=C/[C@H]1[C@H](O)CC(=O)[C@@H]1CCCCCCC(=O)O    Inactive
O=C(O)[C@@H](S)[C@@H](S)C(=O)O    Active
C=CC1=C(C(=O)O)N2C(=O)[C@@H](NC(=O)/C(=N\OCC(=O)O)c3csc(N)n3)[C@H]2SC1    Inactive
NCCCC(O)(P(=O)(O)O)P(=O)(O)O    Inactive
Nc1nc(Cl)nc2c1ncn2[C@H]1C[C@H](O)[C@@H](CO)O1    Inactive

Form field - read-out: SGOT Increase - Activity Score; system: Hepatotoxicity; submitted item: Cc1c2oc3c(C)ccc(C(=O)N[C@@H]4C(=O)N[C@H](C(C)C)C(=O)N5CCC[C@H]5C(=O)N(C)CC(=O)N(C)[C@@H](C(C)C)C(=O)O[C@@H]4C)c3nc-2c(C(=O)N[C@@H]2C(=O)N[C@H](C(C)C)C(=O)N3CCC[C@H]3C(=O)N(C)CC(=O)N(C)[C@@H](C(C)C)C(=O)O[C@@H]2C)c(N)c1=O [DACTINOMYCIN] (I: T[dV]P[Sar][NMeV] / II: T[dV]P[Sar][NMeV]; ester I:1-I:C, II:1-II:C; linker I:N-II:N via Actinocin(9to1))
Active

Form field - read-out: SGOT Increase - Activity Score; system: Hepatotoxicity; submitted item: CO/N=C(\C(=O)N[C@@H]1C(=O)N2C(C(=O)[O-])=C(C[N+]3(C)CCCC3)CS[C@H]12)c1csc(N)n1
Inactive

Form field - read-out: SGOT Increase - Activity Score; system: Hepatotoxicity; submitted item: CC(NCCc1ccc(O)cc1)C(O)c1ccc(O)cc1 (centres undefined)
Active
